molecular target: Neutrophil elastase (Homo sapiens, UniProt P08246); assay: Inhibitory activity against Human Neutrophil Elastase by HNE-catalyzed hydrolysis of MeO-Suc-Ala-Ala-Pro-Val-pNa
Sequence (P08246 whole entry): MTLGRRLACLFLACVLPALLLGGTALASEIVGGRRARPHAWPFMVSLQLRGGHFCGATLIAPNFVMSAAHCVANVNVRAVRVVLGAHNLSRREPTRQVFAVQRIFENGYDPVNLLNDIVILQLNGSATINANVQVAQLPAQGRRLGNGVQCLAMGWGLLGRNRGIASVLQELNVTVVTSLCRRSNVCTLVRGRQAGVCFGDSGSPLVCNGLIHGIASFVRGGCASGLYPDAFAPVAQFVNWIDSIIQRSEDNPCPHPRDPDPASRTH
Peptide text beside a SMILES is read from it.
measurement.type: log10 of Ki (log10 of the value in nM)
Form field - Quantity: Ki; Unit: nM; Scale: log10

{"columns": ["compound", "log10 of Ki"],
 "data": [
  ["CC(C)[C@H](NC(=O)c1ccc(O)cc1)C(=O)N1CCC[C@H]1C(=O)N[C@H](C(=O)C(F)(F)F)C(C)C", 0.59],
  ["CC(=O)Oc1cc(OC(C)=O)cc(C(=O)N[C@H](C(=O)N2CCCC2C(=O)NC(C(=O)C(F)(F)F)C(C)C)C(C)C)c1 (some centres not stated)", 1.78],
  ["CC(C)C(NC(=O)C1CCCN1C(=O)[C@@H](NC(=O)c1cc(C(=O)O)cc(C(=O)O)c1)C(C)C)C(=O)C(F)(F)F (some centres not stated)", 1.63],
  ["CC(C)[C@H](NC(=O)c1ccccc1)C(=O)N1CCC[C@H]1C(=O)N[C@H](C(=O)C(F)(F)F)C(C)C (HELM PEPTIDE1{[O=C(c1ccccc1)[*:2]].V.P.V.[FC(F)(F)[*:1]]}$$$$V2.0)", 0.83],
  ["CC(C)[C@H](NC(=O)c1c[nH]cn1)C(=O)N1CCC[C@H]1C(=O)N[C@H](C(=O)C(F)(F)F)C(C)C", 1.80],
  ["CC(C)[C@H](NC(=O)N1CCOCC1)C(=O)N1CCC[C@H]1C(=O)N[C@H](C(=O)C(F)(F)C(F)(F)F)C(C)C", 2.23],
  ["CCOC(=O)c1ccc(/C=C/C(=O)N[C@H](C(=O)N2CCCC2C(=O)NC(C(=O)C(F)(F)F)C(C)C)C(C)C)cc1 (some centres not stated)", -0.37],
  ["CC(C)[C@H](NC(=O)c1ccccn1)C(=O)N1CCC[C@H]1C(=O)N[C@H](C(=O)C(F)(F)F)C(C)C", 1.30]
]}

Lab request: please report log10 of Ki under test system Neutrophil elastase (Homo sapiens, UniProt P08246) for CC(C)C(NC(=O)C1CCCN1C(=O)[C@@H](NC(=O)c1cc2ccccc2cc1C(=O)O)C(C)C)C(=O)C(F)(F)F (some centres not stated)
0.23

Moving on to CC(=O)N(CC(=O)N[C@H](C(=O)N1CCC[C@H]1C(=O)N[C@H](C(=O)C(F)(F)F)C(C)C)C(C)C)Cc1ccccc1 (HELM PEPTIDE1{[ac].[O=C(CN(Cc1ccccc1)[*:1])[*:2]].V.P.V.[FC(F)(F)[*:1]]}$$$$V2.0)
-0.02

Moving on to CC(C)C(NC(=O)C1CCCN1C(=O)[C@@H](NS(=O)(=O)c1ccc2ccccc2c1)C(C)C)C(=O)C(F)(F)F (some centres not stated)
0.43

Moving on to CC(C)C(NC(=O)C1CCCN1C(=O)[C@@H](NS(=O)(=O)c1ccc([N+](=O)[O-])cc1)C(C)C)C(=O)C(F)(F)F (some centres not stated)
0.72

Moving on to COc1ccc(S(=O)(=O)N[C@H](C(=O)N2CCCC2C(=O)NC(C(=O)C(F)(F)F)C(C)C)C(C)C)cc1 (some centres not stated)
0.90

Moving on to CC(C)C(NC(=O)C1CCCN1C(=O)[C@@H](NC(=O)c1ccc(Oc2ccccc2)cc1)C(C)C)C(=O)C(F)(F)F (some centres not stated)
-0.39

Moving on to CC(C)[C@H](NC(=O)c1ccc(O)c(O)c1)C(=O)N1CCC[C@H]1C(=O)N[C@H](C(=O)C(F)(F)F)C(C)C
1.20

Moving on to CC(C)C(NC(=O)C1CCCN1C(=O)[C@@H](NC(=O)c1ccc(N(C)C)cc1)C(C)C)C(=O)C(F)(F)F (some centres not stated)
0.40

Data origin: ChEMBL document CHEMBL1130061
